Reported MIC is given for each of the following molecules.
# System: Enterobacter aerogenes ATCC 29751
# Assay Details: Antibacterial activity MIC, two-fold agar dilution
# Format: cell-based
# Condition Summary: Klebsiella aerogenes, ATCC29751; Enterobacter aerogenes ATCC 29751; Muller-Hinton agar, 37° C., 20 hours; read-out: Antibacterial Activity MIC
Just the number please, in µg/mL, no unit attached.

// solved cases for MIC follow
Molecule	MIC / µg/mL
CC[n+]1c(N)cc(SCC2=C(C(=O)[O-])N3C(=O)[C@@H](NC(=O)/C(=N\OC)c4csc(N)n4)[C@H]3SC2)nc1N	0.25
CCO/N=C(\C(=O)N[C@@H]1C(=O)N2C(C(=O)[O-])=C(CSc3cc(N)[n+](C)c(N)n3)CS[C@H]12)c1nsc(N)n1	0.25
C[n+]1c(N)nc(N)nc1SCC1=C(C(=O)[O-])N2C(=O)C(NC(=O)/C(=N\OC(C)(C)C(=O)O)c3csc(N)n3)[C@H]2SC1 (stereo partly drawn)	2

Record summary for CC(C)(O/N=C(\C(=O)NC1C(=O)N2C(C(=O)[O-])=C(CSc3nc(N)nc(N)[n+]3-c3ccccc3)CS[C@H]12)c1csc(N)n1)C(=O)O (stereo partly drawn) : reported MIC = 2

Record summary for CC[n+]1c(SCC2=C(C(=O)[O-])N3C(=O)[C@@H](NC(=O)/C(=N\OC)c4csc(N)n4)[C@H]3SC2)cc(N)nc1N : reported MIC = 0.5

Record summary for CC(O/N=C(\C(=O)N[C@@H]1C(=O)N2C(C(=O)[O-])=C(CSc3cc(N)nc(N)[n+]3C)CS[C@H]12)c1csc(N)n1)C(=O)O (stereo partly drawn) : reported MIC = 2

Record summary for CC[n+]1c(SCC2=C(C(=O)[O-])N3C(=O)[C@@H](NC(=O)/C(=N\OC(C)(C)C(=O)O)c4csc(N)n4)[C@H]3SC2)cc(N)nc1N : reported MIC = 1

Record summary for CO/N=C(\C(=O)N[C@@H]1C(=O)N2C(C(=O)[O-])=C(CSc3cc(N)[n+](C)c(N)n3)CS[C@H]12)c1csc(N)n1 : reported MIC = 0.25

Record summary for CC[n+]1c(N)cc(SCC2=C(C(=O)[O-])N3C(=O)[C@@H](NC(=O)/C(=N\OC(C)(C)C(=O)O)c4csc(N)n4)[C@H]3SC2)nc1N : reported MIC = 2

====

# Tested on: Proteus mirabilis ATCC 25933
# Assay Details: Antibacterial activity MIC, two-fold agar dilution
# Assay type: cell-based
# Condition Summary: ATCC25933; Proteus mirabilis ATCC 25933; Muller-Hinton agar, 37° C., 20 hours; read-out: Antibacterial Activity MIC
Recorded Metric: MIC

// solved cases for MIC follow
> print(dat)
                                   compound  recorded.metric       result
1  CC(O/N=C(\C(=O)N[C@@H]1C(=O)N2C(C(=O)[O-])=C(CSc3cc(N)nc(N)[n+]3C)CS[C@H]12)c1csc(N)n1)C(=O)O (stereo partly drawn)              MIC   0.31 µg/mL
2  C[n+]1c(N)nc(N)nc1SCC1=C(C(=O)[O-])N2C(=O)C(NC(=O)/C(=N\OC(C)(C)C(=O)O)c3csc(N)n3)[C@H]2SC1 (stereo partly drawn)              MIC  0.063 µg/mL

Would you kindly look at the next entry?
Record summary for CC[n+]1c(SCC2=C(C(=O)[O-])N3C(=O)[C@@H](NC(=O)/C(=N\OC)c4csc(N)n4)[C@H]3SC2)cc(N)nc1N : reported MIC = 0.031 µg/mL

Cited source: patent US5292733A
